tested-on: TMEM63B
experiment-summary: reporter assay of Huesken 2005
conditions-used: siRNA
Oligonucleotides are given in HELM: sugar(base)linkage, 5' to 3'; d 2'-deoxyribose, r ribose, m 2'-O-methylribose, p phosphate. ss, as = sense and antisense strand
Label fulfilled for high-side normalised inhibition (eCFP-eYFP dual reporter) (at or above 60%) and not fulfilled for low-side normalised inhibition (eCFP-eYFP dual reporter) (below it).

Past entries and their recorded results:
>  <substance>
RNA1{r(C)p.r(G)p.r(C)p.r(A)p.r(U)p.r(C)p.r(C)p.r(C)p.r(A)p.r(G)p.r(G)p.r(C)p.r(C)p.r(U)p.r(G)p.r(C)p.r(U)p.r(C)p.r(A)p.d(T)p.d(T)}|RNA2{r(U)p.r(G)p.r(A)p.r(G)p.r(C)p.r(A)p.r(G)p.r(G)p.r(C)p.r(C)p.r(U)p.r(G)p.r(G)p.r(G)p.r(A)p.r(U)p.r(G)p.r(C)p.r(G)p.d(C)p.d(A)}$$$RNA1{StrandType:ss}|RNA2{StrandType:as}$

>  <assigned-class>
fulfilled

$$$$
>  <substance>
RNA1{r(C)p.r(G)p.r(A)p.r(G)p.r(G)p.r(C)p.r(U)p.r(G)p.r(U)p.r(G)p.r(A)p.r(G)p.r(C)p.r(A)p.r(G)p.r(G)p.r(U)p.r(G)p.r(G)p.d(T)p.d(T)}|RNA2{r(C)p.r(C)p.r(A)p.r(C)p.r(C)p.r(U)p.r(G)p.r(C)p.r(U)p.r(C)p.r(A)p.r(C)p.r(A)p.r(G)p.r(C)p.r(C)p.r(U)p.r(C)p.r(G)p.d(C)p.d(A)}$$$RNA1{StrandType:ss}|RNA2{StrandType:as}$

>  <assigned-class>
not fulfilled

$$$$

Please turn your attention to the following entry.
Please check the record RNA1{r(U)p.r(C)p.r(C)p.r(U)p.r(A)p.r(G)p.r(C)p.r(U)p.r(C)p.r(C)p.r(C)p.r(A)p.r(C)p.r(G)p.r(U)p.r(C)p.r(U)p.r(A)p.r(U)p.d(T)p.d(T)}|RNA2{r(A)p.r(U)p.r(A)p.r(G)p.r(A)p.r(C)p.r(G)p.r(U)p.r(G)p.r(G)p.r(G)p.r(A)p.r(G)p.r(C)p.r(U)p.r(A)p.r(G)p.r(G)p.r(A)p.d(A)p.d(C)}$$$RNA1{StrandType:ss}|RNA2{StrandType:as}$ and state if its normalised inhibition (eCFP-eYFP dual reporter) is at or above 60%. fulfilled

---

tested-on: UBE2C
experiment-summary: reporter assay of Huesken 2005
conditions-used: siRNA
Oligonucleotides are written 5' to 3', each unit as a sugar letter and its base; * is a phosphorothioate linkage, no mark a phosphodiester; rarer units and linkages stand in square brackets, end groups in braces. Plain capitals give the bases only. d = 2'-deoxy (DNA); r = 2'-OH (RNA)
Label T for high-side normalised inhibition (eCFP-eYFP dual reporter) (at or above 90%) and F for low-side normalised inhibition (eCFP-eYFP dual reporter) (below it).

>  <substance>
sense rUrArArGrCrUrCrUrCrGrCrUrArGrArGrUrUrCdTdT / antisense rGrArArCrUrCrUrArGrCrGrArGrArGrCrUrUrAdTdA

>  <assigned-class>
F

$$$$
>  <substance>
sense rArGrUrArUrArUrGrArArGrArCrCrUrGrArGrGdTdT / antisense rCrCrUrCrArGrGrUrCrUrUrCrArUrArUrArCrUdGdT

>  <assigned-class>
F

$$$$
>  <substance>
sense rArArCrArUrUrGrArUrArGrUrCrCrCrUrUrGrAdTdT / antisense rUrCrArArGrGrGrArCrUrArUrCrArArUrGrUrUdGdG

>  <assigned-class>
T

$$$$
>  <substance>
sense rCrUrCrCrArUrCrCrArGrArGrCrCrUrUrCrUrAdTdT / antisense rUrArGrArArGrGrCrUrCrUrGrGrArUrGrGrArGdAdG

>  <assigned-class>
F

$$$$
>  <substance>
sense rGrGrUrCrUrGrCrCrCrUrGrUrArUrGrArUrGrUdTdT / antisense rArCrArUrCrArUrArCrArGrGrGrCrArGrArCrCdAdC

>  <assigned-class>
F

$$$$

Please check the record sense rGrCrGrCrCrCrArCrArGrUrGrArArGrUrUrCrCdTdT / antisense rGrGrArArCrUrUrCrArCrUrGrUrGrGrGrCrGrCdAdT and state if its normalised inhibition (eCFP-eYFP dual reporter) is at or above 90%. F

Please check the record sense rUrGrCrCrUrGrGrArCrArUrCrCrUrGrArArGrGdTdT / antisense rCrCrUrUrCrArGrGrArUrGrUrCrCrArGrGrCrAdTdA and state if its normalised inhibition (eCFP-eYFP dual reporter) is at or above 90%. F

Please check the record sense rGrArUrGrUrCrArGrGrArCrCrArUrUrCrUrGrCdTdT / antisense rGrCrArGrArArUrGrGrUrCrCrUrGrArCrArUrCdAdT and state if its normalised inhibition (eCFP-eYFP dual reporter) is at or above 90%. F

Please check the record sense rArGrCrUrGrGrArArCrArGrUrArUrArUrGrArAdTdT / antisense rUrUrCrArUrArUrArCrUrGrUrUrCrCrArGrCrUdGdC and state if its normalised inhibition (eCFP-eYFP dual reporter) is at or above 90%. T

Please check the record sense rGrCrCrUrGrGrArCrArUrCrCrUrGrArArGrGrAdTdT / antisense rUrCrCrUrUrCrArGrGrArUrGrUrCrCrArGrGrCdAdT and state if its normalised inhibition (eCFP-eYFP dual reporter) is at or above 90%. F

Please check the record sense rArUrGrGrArGrCrArGrCrUrGrGrArArCrArGrUdTdT / antisense rArCrUrGrUrUrCrCrArGrCrUrGrCrUrCrCrArUdGdG and state if its normalised inhibition (eCFP-eYFP dual reporter) is at or above 90%. F
